- SUBJECT OF TEST: neuraminidase of A/Brisbane/59/07 (H1N1) (Influenza A virus, UniProt D5F1R0)
- Sequence (D5F1R0 1-470): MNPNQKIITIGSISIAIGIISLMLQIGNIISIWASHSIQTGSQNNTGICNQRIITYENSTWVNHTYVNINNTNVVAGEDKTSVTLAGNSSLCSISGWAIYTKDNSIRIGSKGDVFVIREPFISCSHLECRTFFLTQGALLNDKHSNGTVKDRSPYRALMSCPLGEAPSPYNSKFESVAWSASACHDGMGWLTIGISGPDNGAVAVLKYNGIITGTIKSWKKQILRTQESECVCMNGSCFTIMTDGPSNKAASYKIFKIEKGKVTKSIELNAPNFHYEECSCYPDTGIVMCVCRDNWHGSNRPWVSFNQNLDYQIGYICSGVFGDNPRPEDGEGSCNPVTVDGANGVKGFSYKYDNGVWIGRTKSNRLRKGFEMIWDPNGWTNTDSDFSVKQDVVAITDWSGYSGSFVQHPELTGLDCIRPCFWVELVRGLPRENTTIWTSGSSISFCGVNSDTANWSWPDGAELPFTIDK
- METHOD: biochemical
- Format: biochemical
pIC50: −log10 of the molar value.
Entries and their pIC50
MEASURE NAME: pIC50

[
  {
    "MOLECULE": "CCC(C)OCc1cc(C(=O)O)ccc1N1C(=O)CCC1(CO)CO (centres unmarked) [Compound 10b]",
    "RESULT MODIFIER": "=",
    "NUMERIC RESULT": 4.80
  },
  {
    "MOLECULE": "CC(C)OCc1cc(C(=O)O)ccc1N1C(=O)CCC1(CO)CO [Compound 10a]",
    "RESULT MODIFIER": "<",
    "NUMERIC RESULT": 2.00
  },
  {
    "MOLECULE": "CC(C)Cc1cc(C(=O)O)ccc1N1C(=O)CCC1(CO)CO [Compound 13c]",
    "RESULT MODIFIER": "=",
    "NUMERIC RESULT": 4.15
  },
  {
    "MOLECULE": "CCC(CC)Cc1cc(C(=O)O)ccc1N1C(=O)CCC1(CO)CO [Compound 14b]",
    "RESULT MODIFIER": "=",
    "NUMERIC RESULT": 5.80
  },
  {
    "MOLECULE": "CCC(=Cc1cc(C(=O)O)ccc1N1C(=O)CCC1(CO)CO)CC [Compound 13b]",
    "RESULT MODIFIER": "=",
    "NUMERIC RESULT": 5.62
  }
]

Provenance of the data: paper PMC3401542
